Target Entity: AgMyo5
Assay Remarks: SPOT peptide array binding signal intensity (averaged, normalized) (arbitrary units (background-subtracted, floor 0; scale differs between SH3 domains)); higher = stronger binding of the SH3 domain to the peptide
# Lookup of reported SPOT peptide array binding signal intensity keyed by entry
Readout Name: SPOT peptide array binding signal intensity

>>> print(df.to_string())
             binder  censoring_sign  readout_number
 0  QLMKNLPKIPLLNDI               =            2.75
 1  NNNKMRPHLPPLSSG               ≤               0
 2  DRIRMFIRFPKFLLE               =             0.5
 3  VKPRQLFPIPLNKVD               =               1
 4  GTIARPLFLVVLFFI               =             0.5
 5  MTKTPETSPPKRPMG               =             946
 6  FYHRPAPKPPVTKKV               =            38.8
 7  RKRAPTPPAPSRSEK               =             0.5
 8  VTHRLRISIPGITGR               =            1.75
 9  RRLRDKYKLPIVDAD               =            0.75
10  DTFLPPPPPPPSNFE               =            1100
11  KKEKKPPKIPKKVYT               ≤               0
12  EEEEEHPPLPARRKS               =             0.5
13  TPRLSLPRLPNKHHW               ≤               0
14  GDHPKGPPPPPPPDE               =            1360
